Give measured Activity (%), portion of recombinant protein activity compared with PsFOMT for each item. Keep answers brief.
- PROCEDURE_SUMMARY: Comparison of activities among recombinant polypeptides with site mutagenesis
- Assay type: biochemical
- STATED_CONDITIONS: Incubation 5 min, Cy3G5G as substrate
Report the value in % with no unit label.

Task: Looking for the measured Activity (%), portion of recombinant protein activity compared with PsFOMT of PsFOMT: flavonoid O-methyltransferase from tree peony Paeonia suffruticosa cv. 'Gunpohden', SEQ ID NO: 3; recombinant MBP fusion protein (protein, listed as Paeonia suffruticosa, MBP fusion, recombinant MBP fusion protein) MAESDRKGILKSEALLKYILETSVYPREHEQLKQLRQATVDKYKYWSVMNVPADEGQFLSMLLKIMNAKKTIEVGVFTGYSLLTAALALPTDAKITAIDPDGEAYETGLPFIKKAGVEHKINYIQADAMSVLDDLVTNGKEEGSFDFAFVDADKENYAKYHEPLMKLVKIGGIIGYDNTLWFGSVALSDGDEMKEFQEKGRRIFREFNTFLAADPRIELAHISIGDGLALCRRLY , can you help?
Result: 100

Task: Looking for the measured Activity (%), portion of recombinant protein activity compared with PsFOMT of PtFOMT-G13E: site-directed mutant of PtFOMT, G13E (protein) MAESDRKGILKSEALLKYILETSVYPREHEQLKQLRQATVDKYKYWSVMNVPADEGQFLSMLLKIMNAKKTIEVGVFTGYSLLTTARALPTDAKITAIDPDGEAYETGLPFIKKAGVEHKINYIQADAMSVLDDLVTNGKEEGSFDFAFVDADKENYAKYHEPLMKLVKIGGIIGYDNTLWFGSVALSDGDEMKEFQEKGRRIFTEFNTFLAADPRIELAHISIGDGLALCRRLY , can you help?
Result: 0

Task: Looking for the measured Activity (%), portion of recombinant protein activity compared with PsFOMT of PtFOMT: similar O-methyltransferase cloned from Paeonia tenuifolia, SEQ ID NO: 4; differs from PsFOMT at positions 13, 85, 87, 205 (protein, listed as Paeonia tenuifolia) MAESDRKGILKSGALLKYILETSVYPREHEQLKQLRQATVDKYKYWSVMNVPADEGQFLSMLLKIMNAKKTIEVGVFTGYSLLTTARALPTDAKITAIDPDGEAYETGLPFIKKAGVEHKINYIQADAMSVLDDLVTNGKEEGSFDFAFVDADKENYAKYHEPLMKLVKIGGIIGYDNTLWFGSVALSDGDEMKEFQEKGRRIFTEFNTFLAADPRIELAHISIGDGLALCRRLY , can you help?
Result: 0

Task: Looking for the measured Activity (%), portion of recombinant protein activity compared with PsFOMT of PtFOMT-T205R: site-directed mutant of PtFOMT, T205R (protein) MAESDRKGILKSGALLKYILETSVYPREHEQLKQLRQATVDKYKYWSVMNVPADEGQFLSMLLKIMNAKKTIEVGVFTGYSLLTTARALPTDAKITAIDPDGEAYETGLPFIKKAGVEHKINYIQADAMSVLDDLVTNGKEEGSFDFAFVDADKENYAKYHEPLMKLVKIGGIIGYDNTLWFGSVALSDGDEMKEFQEKGRRIFREFNTFLAADPRIELAHISIGDGLALCRRLY , can you help?
Result: 0

Task: Looking for the measured Activity (%), portion of recombinant protein activity compared with PsFOMT of PtFOMT-T85A: site-directed mutant of PtFOMT, T85A (protein) MAESDRKGILKSGALLKYILETSVYPREHEQLKQLRQATVDKYKYWSVMNVPADEGQFLSMLLKIMNAKKTIEVGVFTGYSLLTAARALPTDAKITAIDPDGEAYETGLPFIKKAGVEHKINYIQADAMSVLDDLVTNGKEEGSFDFAFVDADKENYAKYHEPLMKLVKIGGIIGYDNTLWFGSVALSDGDEMKEFQEKGRRIFTEFNTFLAADPRIELAHISIGDGLALCRRLY , can you help?
Result: 0

Task: Looking for the measured Activity (%), portion of recombinant protein activity compared with PsFOMT of PtFOMT-R87L: site-directed mutant of PtFOMT, R87L (protein) MAESDRKGILKSGALLKYILETSVYPREHEQLKQLRQATVDKYKYWSVMNVPADEGQFLSMLLKIMNAKKTIEVGVFTGYSLLTTALALPTDAKITAIDPDGEAYETGLPFIKKAGVEHKINYIQADAMSVLDDLVTNGKEEGSFDFAFVDADKENYAKYHEPLMKLVKIGGIIGYDNTLWFGSVALSDGDEMKEFQEKGRRIFTEFNTFLAADPRIELAHISIGDGLALCRRLY , can you help?
Result: 100.7
